Source: the Immune Epitope Database (IEDB)

biological target: HLA-B*57:01; experiment: IEDB peptide-MHC binding, purified MHC/competitive/radioactivity; filed as Kd, often an IC50 or EC50 that approximates it; bounds were set here for any values at or beyond the usual limits of such assays; conditions: source organism: Dengue virus 3 Martinique/1243/1999
QUANTITY_NAME: pKd
When answering, recall that pKd equals minus log10 of the concentration in mol/L, and write that number alone.

[ask] Answer with the recorded pKd for the sequence listed here: "GTSGSPIINR"
[reply] 5.40

---

molecular target: HLA-A*02:01; experiment: IEDB peptide-MHC binding, purified MHC/competitive/fluorescence; bounds were set here for any values at or beyond the usual limits of such assays; settings: source organism: Zaire ebolavirus
As shown below, each of these sequences has a reported pIC50 value.
When answering, recall that pIC50 equals minus log10 of the concentration in mol/L, and write that number alone.

A selection of reference data follows.
| SEQ_STRING | ASSAY_TARGET | QUANTITY_NAME | VALUE_MEASURED |
| --- | --- | --- | --- |
| FLILPQAKK | HLA-A*02:01 | pIC50 | 4.19 |
| FGTNETEYL | HLA-A*02:01 | pIC50 | 4.56 |

Continue with the next sequence.
[ask] Please respond with reported pIC50 (system HLA-A*02:01) for "YQSYSENGM" .
[reply] 4.56
